Overview of recorded IC50 for various compounds
Molecular target: human NK2 receptor (Homo sapiens, UniProt P21452)
Construct: expressed in transfected cells
Sequence (P21452 whole entry): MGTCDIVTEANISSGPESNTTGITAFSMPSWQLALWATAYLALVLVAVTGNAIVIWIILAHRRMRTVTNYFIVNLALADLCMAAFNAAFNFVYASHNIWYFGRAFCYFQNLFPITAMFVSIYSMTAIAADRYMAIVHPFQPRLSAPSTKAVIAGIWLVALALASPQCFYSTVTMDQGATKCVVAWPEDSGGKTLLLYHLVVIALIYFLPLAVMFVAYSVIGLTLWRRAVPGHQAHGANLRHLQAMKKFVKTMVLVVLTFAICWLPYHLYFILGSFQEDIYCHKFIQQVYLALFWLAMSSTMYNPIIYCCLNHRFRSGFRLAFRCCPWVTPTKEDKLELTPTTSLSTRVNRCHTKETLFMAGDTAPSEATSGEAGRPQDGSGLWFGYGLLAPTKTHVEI
Experiment: Binding assay of NK2 receptor expressed in COS or CHO cells, displacement of 125I-NKA (Table 1, hNK2)
Details: human NK2 receptor, 125I-NKA ligand; read-out: hNK2 (IC50 nM)
Reply with just the number (in nM).

Report IC50 for CC(=O)N1CC2(CCN(C(=O)N[C@@H](Cc3c[nH]c4ccccc34)C(=O)N(C)Cc3ccccc3)CC2)c2ccccc21
30

Report IC50 for CS(=O)(=O)N1CC2(CCN(C(=O)N[C@@H](Cc3c[nH]c4ccccc34)C(=O)NCc3ccccc3)CC2)c2ccccc21
40

Report IC50 for CN(Cc1ccccc1)C(=O)[C@H](Cc1c[nH]c2ccccc12)NC(=O)N1CCC2(C=Cc3ccccc32)CC1
10

Report IC50 for CN(Cc1ccccc1)C(=O)[C@@H](Cc1c[nH]c2ccccc12)NC(=O)N1CCC(c2ccccc2)CC1
250

Report IC50 for CN(Cc1ccccc1)C(=O)[C@H](Cc1c[nH]c2ccccc12)NC(=O)N1CCC(c2ccccc2)CC1
50

// data source = patent US5869489A
